- systemName: H1047R PIK3CA enzyme (Homo sapiens, UniProt P42336, H1047R)
- Sequence (P42336 whole entry H1047R): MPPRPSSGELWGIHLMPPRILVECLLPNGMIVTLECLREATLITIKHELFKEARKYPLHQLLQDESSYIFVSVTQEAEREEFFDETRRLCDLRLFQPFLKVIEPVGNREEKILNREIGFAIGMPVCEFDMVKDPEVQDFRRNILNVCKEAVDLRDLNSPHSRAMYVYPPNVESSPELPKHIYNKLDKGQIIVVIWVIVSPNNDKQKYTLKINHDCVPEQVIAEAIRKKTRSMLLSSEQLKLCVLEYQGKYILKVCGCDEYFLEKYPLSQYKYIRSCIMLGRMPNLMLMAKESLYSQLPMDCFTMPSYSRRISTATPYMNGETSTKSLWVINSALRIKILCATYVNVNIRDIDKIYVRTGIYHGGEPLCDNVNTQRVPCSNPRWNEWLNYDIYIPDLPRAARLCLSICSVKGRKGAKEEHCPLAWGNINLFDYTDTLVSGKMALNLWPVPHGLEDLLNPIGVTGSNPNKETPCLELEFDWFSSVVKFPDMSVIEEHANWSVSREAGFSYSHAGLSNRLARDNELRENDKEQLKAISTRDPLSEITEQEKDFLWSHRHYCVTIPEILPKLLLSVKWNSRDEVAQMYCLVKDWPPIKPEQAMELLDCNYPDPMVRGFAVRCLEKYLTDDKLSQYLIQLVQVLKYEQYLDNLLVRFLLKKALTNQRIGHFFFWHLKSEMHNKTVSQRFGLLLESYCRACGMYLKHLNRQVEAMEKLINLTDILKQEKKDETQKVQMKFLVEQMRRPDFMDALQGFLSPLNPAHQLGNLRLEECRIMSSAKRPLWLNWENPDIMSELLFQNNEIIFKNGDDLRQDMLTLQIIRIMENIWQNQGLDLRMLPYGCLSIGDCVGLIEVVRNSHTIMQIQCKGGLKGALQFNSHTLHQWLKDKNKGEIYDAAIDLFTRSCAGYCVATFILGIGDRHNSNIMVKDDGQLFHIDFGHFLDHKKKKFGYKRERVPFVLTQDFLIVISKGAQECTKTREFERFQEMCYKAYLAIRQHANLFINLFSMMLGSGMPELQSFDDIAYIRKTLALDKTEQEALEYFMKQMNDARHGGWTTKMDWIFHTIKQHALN
- Sequence (P27986 whole entry partner): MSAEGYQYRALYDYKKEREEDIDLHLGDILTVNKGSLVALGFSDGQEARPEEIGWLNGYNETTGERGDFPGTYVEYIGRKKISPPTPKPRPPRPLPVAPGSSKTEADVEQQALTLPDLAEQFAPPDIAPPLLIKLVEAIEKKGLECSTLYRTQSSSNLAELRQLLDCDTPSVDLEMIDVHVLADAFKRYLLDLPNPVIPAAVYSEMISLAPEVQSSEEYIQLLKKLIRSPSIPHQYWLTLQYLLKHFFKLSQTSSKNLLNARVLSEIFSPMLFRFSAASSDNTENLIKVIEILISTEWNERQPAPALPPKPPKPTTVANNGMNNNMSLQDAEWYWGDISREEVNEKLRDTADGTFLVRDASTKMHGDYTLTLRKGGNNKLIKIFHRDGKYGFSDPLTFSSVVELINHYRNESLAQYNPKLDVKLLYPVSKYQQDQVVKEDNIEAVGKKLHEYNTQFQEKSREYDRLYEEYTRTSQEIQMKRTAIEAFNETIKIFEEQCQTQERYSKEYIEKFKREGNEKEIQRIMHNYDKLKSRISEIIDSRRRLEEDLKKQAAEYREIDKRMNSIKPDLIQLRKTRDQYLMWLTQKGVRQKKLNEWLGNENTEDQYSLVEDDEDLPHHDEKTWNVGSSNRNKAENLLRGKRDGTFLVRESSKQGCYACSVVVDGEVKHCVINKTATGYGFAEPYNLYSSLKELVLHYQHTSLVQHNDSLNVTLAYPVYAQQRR
- measurementDescription: ADP-Glo Biochemical PIK3CA Kinase Assay
pIC50: −log10 of the molar value.
measuredProperty: pIC50

stdin: Retrieve pIC50 measured for CC(=O)Cc1cc(NC(=O)c2cc(F)cc(C(F)(F)F)c2)c2c(c1)C(=O)NC2c1cc(F)ccc1C(F)F (stereo not drawn) and print it.
stdout: ≥ 7.00

stdin: Please look at this compound and report its pIC50: CC(C)Oc1cc(NC(=O)c2cc(F)cc(C(F)(F)F)c2)c2c(c1)C(=O)NC2c1cc(F)ccc1Cl (stereo not drawn)
stdout: ≥ 7.00

Others:
stdin: Please give measured pIC50 of the following entry: CNc1cc(NC(=O)N2C[C@@](O)(C(F)(F)F)c3cc(F)ccc32)c2c(c1C#N)C(=O)N[C@H]2c1cc(F)ccc1Cl (single isomer, unassigned)
stdout: 5.00 to 6.00

stdin: State its pIC50: CN1CCCC[C@@H]1[C@@H]1NC(=O)c2cccc(NC(=O)c3cc(F)cc(C(F)(F)F)c3)c21 (racemic)
stdout: 4.00 to 5.00

stdin: Quick one: give measured pIC50 for "O=C(Nc1cc(-c2ncc[nH]2)cc2c1[C@H](c1cc(F)ccc1Cl)NC2=O)c1cc(F)cc(C(F)(F)F)c1"
stdout: ≥ 7.00

stdin: Tell me pIC50 reported for O=C(Nc1cccc2c1C(c1ccccc1Br)NC2=O)c1cc(F)cc(C(F)(F)F)c1 (stereo not drawn)
stdout: 6.30 to 7.00

----------
- systemName: H1047R PIK3CA enzyme (Homo sapiens, UniProt P42336, H1047R)
- measurementDescription: ADP-Glo Biochemical PIK3CA Kinase Assay
pIC50: −log10 of the molar value.
measuredProperty: pIC50

Some compounds with known pIC50 results, for comparison:
stdin: GET pIC50 where system = H1047R PIK3CA enzyme (Homo sapiens, UniProt P42336, H1047R) and item = CC[C@]1(O)CN(C(=O)Nc2cccc3c2[C@H](c2cc(F)ccc2Cl)NC3=O)c2ccc(F)cc21 (single isomer, unassigned)
stdout: 5.00 to 6.00

stdin: Answer briefly: pIC50 recorded on H1047R PIK3CA enzyme (Homo sapiens, UniProt P42336, H1047R) for O=C(Nc1ccnc2c1C(c1cccc(F)c1F)NC2=O)c1cc(F)cc(C(F)(F)F)c1 (stereo not drawn)
stdout: 5.00 to 6.00

stdin: Report pIC50 on H1047R PIK3CA enzyme (Homo sapiens, UniProt P42336, H1047R) for this entry: O=C(Nc1cc(C#Cc2ccncc2)cc2c1C(c1cc(F)ccc1Cl)NC2=O)c1cc(F)cc(C(F)(F)F)c1 (stereo not drawn)
stdout: ≥ 7.00

stdin: Please look at O=C(Nc1cc(OC2CCOCC2)cc2c1C(c1cc(F)ccc1Cl)NC2=O)c1cc(F)cc(C(F)(F)F)c1 (stereo not drawn) and tell me its recorded pIC50 on H1047R PIK3CA enzyme (Homo sapiens, UniProt P42336, H1047R).
stdout: ≥ 7.00

stdin: Output reported pIC50 of the compound Cn1nncc1-c1cc(NC(=O)c2cc(F)cc(C(F)(F)F)c2)c2c(c1)C(=O)NC2c1cc(F)ccc1Cl (stereo not drawn) on H1047R PIK3CA enzyme (Homo sapiens, UniProt P42336, H1047R).
stdout: ≥ 7.00

stdin: Please indicate recorded pIC50 of N#Cc1nnc2ccc(-c3cc(NC(=O)c4cc(F)cc(C(F)(F)F)c4)c4c(c3)C(=O)NC4c3cc(F)ccc3Cl)cn12 (stereo not drawn) measured with H1047R PIK3CA enzyme (Homo sapiens, UniProt P42336, H1047R).
stdout: ≥ 7.00

stdin: Write down measured pIC50 (H1047R PIK3CA enzyme (Homo sapiens, UniProt P42336, H1047R)) for this compound. Cc1ccccc1C1NC(=O)c2c(N(C)C)ncc(NC(=O)c3nsc4ccccc34)c21 (stereo not drawn)
stdout: 6.30 to 7.00

stdin: Give pIC50 for this entry on H1047R PIK3CA enzyme (Homo sapiens, UniProt P42336, H1047R): O=C(Nc1cccc2c1C(c1cc(F)ccc1Cl)NC2=O)c1cc(F)c(F)c(C(F)(F)F)c1 (stereo not drawn)
stdout: ≥ 7.00

# evaluate next
stdin: # lookup: H1047R PIK3CA enzyme (Homo sapiens, UniProt P42336, H1047R) pIC50, key = O=C(Nc1cc(-c2cn(C(F)F)cn2)cc2c1C(c1cc(F)ccc1Cl)NC2=O)c1cc(F)cc(C(F)(F)F)c1 (stereo not drawn)
stdout: ≥ 7.00

----------
- systemName: H1047R PIK3CA enzyme (Homo sapiens, UniProt P42336, H1047R)
- measurementDescription: ADP-Glo Biochemical PIK3CA Kinase Assay
pIC50: −log10 of the molar value.
List of pIC50 values.

Solved cases below.
stdin: For the compound O=C(Nc1cc(N2CC3(COC3)C2)cc2c1C(c1cc(F)ccc1Cl)NC2=O)c1cc(F)cc(C(F)(F)F)c1 (stereo not shown) , give its measured pIC50 value.
stdout: ≥ 7.00

stdin: Complete the entry with pIC50 for O=C1N[C@@H](c2cc(F)ccc2Cl)c2c(NC(=O)[C@@H]3C[C@@H](O)C[C@H](C(F)(F)F)C3)cccc21 (single isomer, unassigned)
stdout: 4.00 to 5.00

stdin: Give the reported pIC50 for this compound. CC(C)(O)Cc1cc(NC(=O)c2cc(F)cc(Cl)c2)c2c(c1)C(=O)N[C@H]2c1cc(F)ccc1Cl [Compound I-1080]
stdout: ≥ 7.00

***
stdin: Determine from records and report pIC50 for O=C1NC(c2cc(F)ccc2Cl)c2c(NC(=O)C3CCCC3)cc(-c3ccc4ncnn4c3)cc21 (stereo not shown)
stdout: 4.00 to 5.00

stdin: Write down pIC50 measured for item COc1ncccc1-c1cc(NC(=O)c2cc(F)cc(C(F)(F)F)c2)c2c(c1)C(=O)NC2c1cc(F)ccc1Cl (stereo not shown)
stdout: ≥ 7.00

stdin: Please supply the value of reported pIC50 for the item O=C1NC(c2cc(F)ccc2Cl)c2c(NCc3ccccc3)cc(Br)cc21 (stereo not shown)
stdout: 4.00 to 5.00

stdin: Give the measured pIC50 for N#C[C@H]1C[C@@H](c2cc(NC(=O)c3cc(F)cc(C(F)(F)F)c3)c3c(c2)C(=O)N[C@H]3c2cc(F)ccc2Cl)C1 (single isomer, unassigned)
stdout: 6.30 to 7.00

stdin: Look up pIC50 of N#Cc1cnccc1-c1cc(NC(=O)c2cc(F)cc(C(F)(F)F)c2)c2c(c1)C(=O)N[C@@H]2c1cc(F)ccc1Cl (stereo in doubt) and report it.
stdout: 6.00 to 6.30

stdin: Supply recorded pIC50 for Nc1cc(NC(=O)c2cc(F)cc(C(F)(F)F)c2)c2c(c1)C(=O)NC2c1cc(F)ccc1C(F)F (stereo not shown) here.
stdout: ≥ 7.00

stdin: Return pIC50 (reported value) for this compound: O=C1NC(c2cc(F)ccc2Cl)c2c(NC(=O)C3(c4cccc(Cl)c4)CCCC3)cc(Br)cc21 (stereo not shown)
stdout: 4.00 to 5.00

stdin: Identify the reported pIC50 for the following entry. O=C(Nc1cccc2c1C(c1cc(F)ccc1Cl)NC2=O)c1cc(C(F)(F)F)cc(Cl)n1 (stereo not shown)
stdout: 5.00 to 6.00

stdin: Assign pIC50 to the following record: O=C(Nc1cc(Cc2ccc3c(c2)CNC3=O)cc2c1C(c1cc(F)ccc1Cl)NC2=O)c1cc(F)cc(C(F)(F)F)c1 (stereo not shown)
stdout: ≥ 7.00

stdin: Report pIC50, nothing else, for this compound: CNS(=O)(=O)c1cc(-c2ccc3ncnn3c2)cc2c1C(c1cc(F)ccc1Cl)NC2=O (stereo not shown)
stdout: 4.00 to 5.00

----------
- systemName: H1047R PIK3CA enzyme (Homo sapiens, UniProt P42336, H1047R)
- measurementDescription: ADP-Glo Biochemical PIK3CA Kinase Assay
- Method: Compounds to be assayed were plated in 16 doses of 1:2 serial dilutions (20 nL volume each well) on a 1536-well plate, and the plate warmed to room temperature. […] To the well was added 1 μL of 200 μM ATP and 20 μM of diC8-PIP2 in Substrate Assay Buffer (50 mM HEPES pH7.4, 50 mM NaCl, 5 mM DTT and 0.03% CHAPS) to start the reaction, and the plate was shaken for 10 seconds, then spun briefly at 1500 rpm, and then incubated for 60 minutes at room temperature. […]
pIC50: −log10 of the molar value.
measuredProperty: pIC50

stdin: Note pIC50 for the compound shown: N#CCCc1cc(NC(=O)N2C[C@H](O)c3cc(F)ccc32)c2c(c1)C(=O)N[C@H]2c1cc(F)ccc1Cl (single isomer, unassigned)
stdout: ≥ 7.00

Further cases:
stdin: Report pIC50 for N#C[C@H]1C[C@H](Oc2cc(NC(=O)c3cc(F)cc(C(F)(F)F)c3)c3c(c2)C(=O)N[C@H]3c2cc(F)ccc2Cl)C1 (stereo in doubt)
stdout: ≥ 7.00

stdin: Please list pIC50 recorded for the compound O=C(Nc1cc(NC(=O)C(F)F)cc2c1C(c1cc(F)ccc1Cl)NC2=O)c1cc(F)cc(C(F)(F)F)c1 (centres unmarked)
stdout: ≥ 7.00

stdin: Query pIC50 for "N#Cc1cnc2cc(F)c(-c3cc(NC(=O)c4cc(F)cc(C(F)(F)F)c4)c4c(c3)C(=O)N[C@H]4c3cc(F)ccc3Cl)cn12"
stdout: ≥ 7.00

stdin: Return reported pIC50. Input compound: O=C(Nc1cc(-c2cnc[nH]2)cc2c1C(c1cc(F)ccc1Cl)NC2=O)c1cc(F)cc(C(F)(F)F)c1 (centres unmarked)
stdout: ≥ 7.00

stdin: Specify pIC50 for O=C1NC(c2cc(F)ccc2Cl)c2c(NC(=O)[C@H]3C[C@@H](C(F)(F)F)C3)cc(Br)cc21 (some centres unmarked) and stop.
stdout: 5.00 to 6.00

stdin: Could you please provide reported pIC50 for CNC(=O)c1cc(NC(=O)c2ccccc2)c2c(c1)C(=O)NC2c1cc(F)ccc1Cl (centres unmarked) ? Thanks!
stdout: 4.00 to 5.00

stdin: State its pIC50 for this compound: N#CCc1cc(NC(=O)N2C[C@](O)(C(F)F)c3cc(F)ccc32)c2c(c1)C(=O)N[C@H]2c1cc(F)ccc1Cl (single isomer, unassigned)
stdout: ≥ 7.00

stdin: Provide only the value of recorded pIC50 for O=C1NC(c2cc(F)ccc2Cl)c2c(NC(=O)N3CC(O)(C(F)F)c4ccccc43)cccc21 (mixture of isomers)
stdout: ≥ 7.00

stdin: Tell me pIC50 reported for CC(C)C1CCN(C(=O)Nc2cccc3c2C(c2cc(F)ccc2Cl)NC3=O)C1 (mixture of isomers)
stdout: 4.00 to 5.00

stdin: Recall and state the measured pIC50 for Cc1cnccc1-c1cc(NC(=O)c2cc(F)cc(C(F)(F)F)c2)c2c(c1)C(=O)NC2c1cc(F)ccc1Cl (centres unmarked) .
stdout: ≥ 7.00

stdin: Answer with reported pIC50 of O=C(Nc1cccc2c1C(c1cccc3cn[nH]c13)NC2=O)c1cc(F)cc(C(F)(F)F)c1 (centres unmarked)
stdout: 4.00 to 5.00

stdin: Quote pIC50 reported for O=C(Nc1cc(Br)cc2c1C(c1cc(F)ccc1Cl)NC2=O)c1ccc(C(F)F)cc1 (centres unmarked) please.
stdout: 5.00 to 6.00

stdin: Could you please provide reported pIC50 for Cc1ccccc1C1NC(=O)c2c(C)ccc(NC(=O)c3csc4ccccc34)c21 (centres unmarked) ? Thanks!
stdout: 6.30 to 7.00
